Source of measurements: ChEMBL document CHEMBL3885861

Organism: Rattus norvegicus
Assay: Open TG-GATES - Regimen: Single
Type: toxicity, organism-based, Sprague-Dawley
Parameters: regimen Single, gender Male, age 6 weeks
Conditions: in vivo, po, 0 mg/kg, 9 h, tissue Kidney, route gavage, dose level Control
Please go through the items and note down their KIDNEY_L.
The figure you give is taken to be in g; do not add the unit.

Suppose we examine the compound ClC(Cl)(Cl)Cl [CARBON TETRACHLORIDE] ; what KIDNEY_L value has been reported?
0.9

Also O=NN(CCCl)C(=O)NC1CCCCC1 ?
0.9

Also CN(C)C(=N)N=C(N)N ?
0.9

Also CCC1(c2ccccc2)C(=O)NC(=O)NC1=O ?
1

Also CC[C@H]1[C@@H]2C[C@H]3[C@@H]4N(C)c5ccccc5[C@]45C[C@@H]([C@@H]2[C@H]5O)N3[C@@H]1O ?
0.9

Also CN(C)CCC=C1c2ccccc2COc2ccccc21 [DOXEPIN] ?
0.9

Also OCCOCCN1CCN(C(c2ccccc2)c2ccc(Cl)cc2)CC1 (stereo not given) [HYDROXYZINE] ?
0.9

Also CC(C)N(CCC(C(N)=O)(c1ccccc1)c1ccccn1)C(C)C (stereo not given) [DISOPYRAMIDE] ?
1

Also CCc1oc2ccccc2c1C(=O)c1cc(Br)c(O)c(Br)c1 ?
1

Also CC1=C(CC(=O)O)c2cc(F)ccc2/C1=C\c1ccc([S+](C)[O-])cc1 (stereo not given) ?
0.9

###

Species on record: Rattus norvegicus
Test: Open TG-GATES - Regimen: Single
Assay type: toxicity, organism-based, Sprague-Dawley
Set-up: regimen Single, gender Male, age 6 weeks
Conditions: in vivo, po, 0 mg/kg, 3 h, tissue Plasma, route gavage, dose level Control
Please go through the items and note down their DBIL.
The figure you give is taken to be in mg/dL; do not add the unit.

Suppose we examine the molecule O=NN(CCCl)C(=O)NC1CCCCC1 ; what DBIL value has been reported?
0.072

Also CC(C)N(CCC(C(N)=O)(c1ccccc1)c1ccccn1)C(C)C (centres undefined) [DISOPYRAMIDE] ?
0

Also OCCOCCN1CCN(C(c2ccccc2)c2ccc(Cl)cc2)CC1 (centres undefined) [HYDROXYZINE] ?
0.012

Also CC[C@H]1[C@@H]2C[C@H]3[C@@H]4N(C)c5ccccc5[C@]45C[C@@H]([C@@H]2[C@H]5O)N3[C@@H]1O ?
0.04

###

Organism: Rattus norvegicus
Test: Open TG-GATES - Regimen: Single
Type: toxicity, organism-based, Sprague-Dawley
Parameters: regimen Single, gender Male, age 6 weeks
Conditions: in vivo, po, 0 mg/kg, 6 h, tissue Plasma, route gavage, dose level Control
Please go through the items and note down their K.
The figure you give is taken to be in meq/L; do not add the unit.

Suppose we examine the molecule OCCOCCN1CCN(C(c2ccccc2)c2ccc(Cl)cc2)CC1 (centres undefined) [HYDROXYZINE] ; what K value has been reported?
4.2

Also CN(C)C(=N)N=C(N)N [METFORMIN] ?
4.1

Also CC[C@H]1[C@@H]2C[C@H]3[C@@H]4N(C)c5ccccc5[C@]45C[C@@H]([C@@H]2[C@H]5O)N3[C@@H]1O [AJMALINE] ?
4.8

Also O=NN(CCCl)C(=O)NC1CCCCC1 [LOMUSTINE] ?
5.6

Also CCc1oc2ccccc2c1C(=O)c1cc(Br)c(O)c(Br)c1 [BENZBROMARONE] ?
5.2

Also CCC1(c2ccccc2)C(=O)NC(=O)NC1=O [PHENOBARBITAL] ?
4

Also CC1=C(CC(=O)O)c2cc(F)ccc2/C1=C\c1ccc([S+](C)[O-])cc1 (centres undefined) ?
4.1

Also CN(C)CCC=C1c2ccccc2COc2ccccc21 [DOXEPIN] ?
4.1

Also ClC(Cl)(Cl)Cl [CARBON TETRACHLORIDE] ?
4.1

###

Please go through the items and note down their KIDNEY_R.
Species on record: Rattus norvegicus
Assay: Open TG-GATES - Regimen: Single
Assay type: toxicity, organism-based, Sprague-Dawley
Set-up: regimen Single, gender Male, age 6 weeks
Conditions: in vivo, po, 0 mg/kg, 24 h, tissue Kidney, route gavage, dose level Control
The figure you give is taken to be in g; do not add the unit.

Suppose we examine the compound CCc1oc2ccccc2c1C(=O)c1cc(Br)c(O)c(Br)c1 ; what KIDNEY_R value has been reported?
1

Also CC(C)N(CCC(C(N)=O)(c1ccccc1)c1ccccn1)C(C)C (stereo unspecified) [DISOPYRAMIDE] ?
1

Also CN(C)CCC=C1c2ccccc2COc2ccccc21 [DOXEPIN] ?
0.9

Also CN(C)C(=N)N=C(N)N ?
0.9

Also CC1=C(CC(=O)O)c2cc(F)ccc2/C1=C\c1ccc([S+](C)[O-])cc1 (stereo unspecified) ?
0.9

Also O=NN1CCOCC1 ?
1

Also O=NN(CCCl)C(=O)NC1CCCCC1 ?
1

Also OCCOCCN1CCN(C(c2ccccc2)c2ccc(Cl)cc2)CC1 (stereo unspecified) [HYDROXYZINE] ?
0.9

Also CC[C@H]1[C@@H]2C[C@H]3[C@@H]4N(C)c5ccccc5[C@]45C[C@@H]([C@@H]2[C@H]5O)N3[C@@H]1O ?
0.9

Also ClC(Cl)(Cl)Cl [CARBON TETRACHLORIDE] ?
0.9

Also CCC1(c2ccccc2)C(=O)NC(=O)NC1=O ?
1.1

###

Organism: Rattus norvegicus
Test: Open TG-GATES - Regimen: Daily Repeat
Type: toxicity, organism-based, Sprague-Dawley
Set-up: regimen Daily Repeat, gender Male, age 6 weeks
Settings: in vivo, po, 0 mg/kg, […], tissue Plasma, route gavage, dose level Control, time 7 day
Please go through the items and note down their GLC.
The figure you give is taken to be in mg/dL; do not add the unit.

Suppose we examine the molecule O=NN(CCCl)C(=O)NC1CCCCC1 ; what GLC value has been reported?
186

Also ClC(Cl)(Cl)Cl [CARBON TETRACHLORIDE] ?
204.2

Also CC1=C(CC(=O)O)c2cc(F)ccc2/C1=C\c1ccc([S+](C)[O-])cc1 (stereo not given) ?
183

Also OCCOCCN1CCN(C(c2ccccc2)c2ccc(Cl)cc2)CC1 (stereo not given) [HYDROXYZINE] ?
193

Also CN(C)C(=N)N=C(N)N ?
187

Also CCc1oc2ccccc2c1C(=O)c1cc(Br)c(O)c(Br)c1 ?
197.2

Also CC[C@H]1[C@@H]2C[C@H]3[C@@H]4N(C)c5ccccc5[C@]45C[C@@H]([C@@H]2[C@H]5O)N3[C@@H]1O ?
206.8

Also CN(C)CCC=C1c2ccccc2COc2ccccc21 [DOXEPIN] ?
186.4

Also CCC1(c2ccccc2)C(=O)NC(=O)NC1=O ?
206.4

Also CCCCc1oc2ccccc2c1C(=O)c1cc(I)c(OCCN(CC)CC)c(I)c1 ?
209.6

###

Species: Rattus norvegicus
Assay: Open TG-GATES - Regimen: Daily Repeat
Type: toxicity, organism-based, Sprague-Dawley
Parameters: regimen Daily Repeat, gender Male, age 6 weeks
Settings: in vivo, po, 0 mg/kg, 72 h, route gavage, dose level Control, time 3 day
Please go through the items and note down their TERMINAL_BW.
Answer with the value and then the unit.

Suppose we examine the molecule O=NN(CCCl)C(=O)NC1CCCCC1 ; what TERMINAL_BW value has been reported?
220.6 g

Also ClC(Cl)(Cl)Cl [CARBON TETRACHLORIDE] ?
223.2 g

Also CC[C@H]1[C@@H]2C[C@H]3[C@@H]4N(C)c5ccccc5[C@]45C[C@@H]([C@@H]2[C@H]5O)N3[C@@H]1O ?
211 g

Also CN(C)CCC=C1c2ccccc2COc2ccccc21 [DOXEPIN] ?
226.4 g

Also CC(C)N(CCC(C(N)=O)(c1ccccc1)c1ccccn1)C(C)C (stereo unspecified) [DISOPYRAMIDE] ?
230.2 g

Also CN(C)C(=N)N=C(N)N ?
224.4 g

Also CCC1(c2ccccc2)C(=O)NC(=O)NC1=O ?
222.1 g

Also CCc1oc2ccccc2c1C(=O)c1cc(Br)c(O)c(Br)c1 ?
230.4 g

Also OCCOCCN1CCN(C(c2ccccc2)c2ccc(Cl)cc2)CC1 (stereo unspecified) [HYDROXYZINE] ?
230.9 g

Also CCCCc1oc2ccccc2c1C(=O)c1cc(I)c(OCCN(CC)CC)c(I)c1 ?
226.9 g

Also CC1=C(CC(=O)O)c2cc(F)ccc2/C1=C\c1ccc([S+](C)[O-])cc1 (stereo unspecified) ?
233.7 g

###

Species: Rattus norvegicus
Assay: Open TG-GATES - Regimen: Single
Type: toxicity, organism-based, Sprague-Dawley
Set-up: regimen Single, gender Male, age 6 weeks
Details: in vivo, po, 0 mg/kg, 9 h, tissue Plasma, route gavage, dose level Control
Please go through the items and note down their BUN.
The figure you give is taken to be in mg/dL; do not add the unit.

Suppose we examine the molecule ClC(Cl)(Cl)Cl [CARBON TETRACHLORIDE] ; what BUN value has been reported?
11.2

Also CCC1(c2ccccc2)C(=O)NC(=O)NC1=O ?
9.4

Also CC1=C(CC(=O)O)c2cc(F)ccc2/C1=C\c1ccc([S+](C)[O-])cc1 (centres undefined) ?
10

Also CN(C)C(=N)N=C(N)N ?
9

Also CC[C@H]1[C@@H]2C[C@H]3[C@@H]4N(C)c5ccccc5[C@]45C[C@@H]([C@@H]2[C@H]5O)N3[C@@H]1O ?
12.2

Also OCCOCCN1CCN(C(c2ccccc2)c2ccc(Cl)cc2)CC1 (centres undefined) [HYDROXYZINE] ?
9.4

Also CCc1oc2ccccc2c1C(=O)c1cc(Br)c(O)c(Br)c1 ?
11.2

Also O=NN(CCCl)C(=O)NC1CCCCC1 ?
10.8

Also CC(C)N(CCC(C(N)=O)(c1ccccc1)c1ccccn1)C(C)C (centres undefined) [DISOPYRAMIDE] ?
13.4
